# Top per record follows
system name: T1, human G-protein-coupled receptor family C group 5 member D (GPRC5D) (human, UniProt Q9NZD1 1-345)
T1 construct: whole, on cells; also called human GPRC5D protein
T1 sequence (Q9NZD1 whole entry): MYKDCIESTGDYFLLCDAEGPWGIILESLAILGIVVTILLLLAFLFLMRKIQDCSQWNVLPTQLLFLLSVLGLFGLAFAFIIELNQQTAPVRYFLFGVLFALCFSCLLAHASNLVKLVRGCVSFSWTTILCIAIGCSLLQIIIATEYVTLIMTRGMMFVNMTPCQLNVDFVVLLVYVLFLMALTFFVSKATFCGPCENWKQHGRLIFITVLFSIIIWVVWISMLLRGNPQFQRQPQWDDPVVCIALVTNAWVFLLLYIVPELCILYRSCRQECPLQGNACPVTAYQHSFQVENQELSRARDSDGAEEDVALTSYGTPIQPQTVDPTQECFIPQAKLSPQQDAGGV
experiment summary: FACS, CHO-K1/human GPRC5D, chimeric antibody
Provide a numeric answer; units are not to be included.

// solved cases for Top follow
{"columns": ["binder", "endpoint result"],
 "data": [
  ["37B9C4-XI (antibody, V domains shown, also called 37B9C4 (chimeric); 37-XI) VH: EVNLEESGGGLVQPGGSMKLSCVASGFTFSDYWMNWVRQSPEKGLEWVAEIRLKSNNYATHYAESVKGRFTISRDDSKSSVYLQMNNLRAEDTGIYYCTRPLLWFRRYYAMDYWGQGTSVTVSS VL: DIQMTQTTSSLSASLGDRITISCSASQGISNYLNWYQQKPDGTVKLLIYYTSSLHSGVPSRFSGSGSGTDYSLTISNLEPADIATYYCQQYSKLPFTFGSGTKLEIK", 405000],
  ["58F9G10-XI (antibody, V domains shown, also called 58F9G10 (chimeric); 58-XI) VH: EVQLQQSGPELVKTGASVKISCKASGYSFTGYYIHWVKQSHGKSLEWIGYISCYNGATSFNQKFKGKATFTVDTSSSTAYMQFNSLTSEDSAVYYCARTELRGPWFAYWGQGTLVTVSA VL: QTVLTQSPAIMSASPGEKVTMTCSASSSVSYMNWYQQKSGTSPKRWIYDTSKLASGVPARFSGSGSGTSYSLTISSMEAEDAATYYCQQWSNNPLTFGAGTKLELK", 415000]
]}

Query: Recorded Top for 34-XI (antibody, V domains shown, also called 34D3H1 (chimeric)) VH: EVHLVESGGDLVKPGGSLKLSCAASGFTFSSYGMSWVRQTPDKRLEWVATISSGGSYTYYPDSVKGRFTISRDNAKNTLNLQMSSLKSEDTAMYYCARQGGDAMDYWGQGTSVTVSS VL: DIVLTQSPATLSVTPGDSVSLSCRASQSINNNLHWYQQKSHESPRLLIKYASQSISGIPSRFSGSGSGTDFTLSINSVETEDFGMYFCQQSNSRLTFGAGTKLELK , please?
Response: 508000

Query: Thanks! And 6G10D9-XI (antibody, V domains shown, also called 6G10D9 (chimeric); 6G1009-X1) VH: QVQLQQSGAELARPGASVKMSCKASGYTFTTYTMHWVKQRPGQGLEWLGYINPSSGYTNYNQKFKDKATLTAGKSSSTAYMQLSSLTSEDSAVYYCASLRSRGYFDYWGQGTTLTVSS VL: DIVMTQSQTFMSTSVGDRVRITCKASQNVGTAVVWYQQKTGQSPRLLIYSASNRYTGVPDRFTGSGSGTDFTLTISNMQSEDLADFFCQQYSSYPYTFGGGTKLEIK ?
Response: 458000

Query: Thanks! And 40A5B2 (chimeric) (antibody, V domains shown) VH: EVQLQQSGPELVKPGASVKMSCKASGYTFTRNIMHWVKQKPGQGLEWIGYINPYNAGSKYNEKFKGKATLTSDISSSTAYMELSSLTSEDSAVYYCAREEVYYRYGAWFAYWGHGTLVTVSA VL: DIVLTQSPASLAVSLGQRATISCRASQSVSTSSYSYMHWYQQKPGQPPKLLIKYASNLESGVPARFSGSGSGTDFTLNIHPVEEEDTATYYCQHSWEIPRTFGGGTKLEIK ?
Response: 440000
